Numbers sourced from PubChem BioAssay AID1578.

Assay: NOD1 signaling inhibitors, primary screen, cell-based, luminescence, uHTS (AID 1578);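 also: HEK-293T reporter cells stimulated with the NOD1 agonist gamma-tri-DAP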
Conditions: NOD1-driven NF-kB luciferase reporter cells, at 4 µM, hits give high values
In all, about 290,000 compounds went through this assay and about 3,000 (1%) were called active. The sample holds actives, similar compounds and a random draw of the others, so the mix is not that of the screen.
measurementType: inhibition (%)
// return numeric value only (unit: %, not printed)

compound COc1ccc(/C=C2\CCC(C3CCCC3)C2=O)cc1Cn1nc(C)cc1C (stereo unspecified) , inhibition observed: 26.4

compound COc1ccc2[nH]c(C(=O)O)c(NS(=O)(=O)c3ccc(C)c(C)c3)c2c1 , inhibition observed: -3.1

compound C=CCN(c1ccccc1C(=O)O)S(=O)(=O)c1ccc(C)cc1 , inhibition observed: -26.8

compound COC(=O)[C@H](Cc1ccccc1)NC(=O)NCCc1ccc(OC)cc1 , inhibition observed: -0.3

compound CC(NC(=O)/C(C#N)=C/c1ccco1)c1ccccc1 (stereo unspecified) , inhibition observed: -8.1

compound O=C1NC(=S)S/C1=C\c1ccc(SCc2ccco2)o1 , inhibition observed: -10.8

###

Assay: NOD1 signaling inhibitors, primary screen, cell-based, luminescence, uHTS (AID 1578);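 also: HEK-293T reporter cells stimulated with the NOD1 agonist gamma-tri-DAP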
Conditions: NOD1-driven NF-kB luciferase reporter cells, at 4 µM
In all, about 290,000 compounds went through this assay and about 3,000 (1%) were called active. Rule as the data show it: active = inhibition mostly above about 36% (no sharp cut-off); inactive = mostly below about 34%. The sample holds actives, similar compounds and a random draw of the others, so the mix is not that of the screen.
Give your call using only these classes: active, inactive

Which result was noted for this compound in the test: Cc1ccc(C(C#N)c2ccc3c(C(F)(F)F)cc(C(F)(F)F)nc3n2)cc1 (stereo unspecified)
inactive

Which result was noted for this compound in the test: CC(C)(C)S(=O)(=O)/C(C#N)=C/c1sccc1C1OCCO1
inactive

Which result was noted for this compound in the test: CSc1cccc(NS(=O)(=O)c2ccccc2)c1
inactive

Which result was noted for this compound in the test: O/N=C\c1ccccc1Oc1ccc(F)cc1
inactive

Which result was noted for this compound in the test: Cc1ccccc1-c1nc(CS(=O)CC(=O)NC(C)CCc2ccccc2)c(C)o1 (stereo unspecified)
inactive

Which result was noted for this compound in the test: O/N=C/c1ccccc1Oc1ccccc1
inactive

Which result was noted for this compound in the test: COc1cc(/C=N/NC(=O)C(=O)NCc2cccnc2)cc(OC)c1OC
inactive

Which result was noted for this compound in the test: CS(=O)(=O)c1nc(-c2ccccc2)cc(C(F)(F)F)n1
inactive

Which result was noted for this compound in the test: CC(=O)c1c2c3c(c(Br)ccc3n(C)c1=O)C(=O)c1ccccc1-2
inactive

Which result was noted for this compound in the test: COc1ccc(CN(C)S(=O)(=O)c2nnc(NC(=O)c3cccc(F)c3)s2)cc1OC
inactive

Which result was noted for this compound in the test: Cc1cccc(-c2nc(CS(=O)CC(=O)NC(C)CCc3ccccc3)c(C)o2)c1 (stereo unspecified)
inactive

Which result was noted for this compound in the test: CCOc1ccc(-c2c(C)sc3nc[nH]c(=O)c23)cc1
inactive

Which result was noted for this compound in the test: CCCNC(=O)C(=O)NCC1CCCN1CC (stereo unspecified)
inactive

Which result was noted for this compound in the test: N#CC(c1ccc(Cl)cc1)c1ccc2c(C(F)(F)F)cc(C(F)(F)F)nc2n1 (stereo unspecified)
inactive

Which result was noted for this compound in the test: CCOC(=O)CCSc1nc(-c2ccccc2)cc(C(F)(F)F)n1
inactive

Which result was noted for this compound in the test: CCOC(=O)c1c(N)sc2c(OCC)c(Br)ccc12
inactive

Which result was noted for this compound in the test: Cc1ccc2c(c1)N(C(=O)CCC(=O)NCc1cccnc1)CC(C)O2 (stereo unspecified)
inactive

Which result was noted for this compound in the test: Cn1c(CCN2CCN(c3ccccn3)CC2)nc2cc(NC(=O)COc3ccc(Cl)cc3)ccc21
inactive

Which result was noted for this compound in the test: Nc1nccnc1C(=O)OCC(=O)NNC(=O)c1ccccc1
inactive

Which result was noted for this compound in the test: CC(C)(C)N1C(=O)[C@H]2[C@@H](c3ccc(Br)cc3)N3C(=O)N(c4cccc(Br)c4)C(=O)[C@@]3(Cc3ccccc3)[C@H]2C1=O
inactive

Which result was noted for this compound in the test: Cc1ccc(S(=O)(=O)c2nc(-c3ccccc3F)oc2N2CC(C)OC(C)C2)cc1 (stereo unspecified)
inactive

Which result was noted for this compound in the test: CCOC(=O)CSc1nc(-c2ccccc2)cc(C(F)(F)F)n1
inactive

Which result was noted for this compound in the test: O=C(C1CCN(c2ccc(N3CCOCC3)nn2)CC1)N1CCN(c2ccc(F)cc2)CC1
inactive

Which result was noted for this compound in the test: COc1cccc(NC(=O)CSc2ccc3nnc(-c4ccncc4)n3n2)c1
inactive

Which result was noted for this compound in the test: N#Cc1cc(NCC2CCCO2)c([N+](=O)[O-])cc1C#N (stereo unspecified)
inactive

Which result was noted for this compound in the test: Cc1ccc(N/N=C(\C#N)C(=O)c2ccsc2)cc1
inactive

Which result was noted for this compound in the test: N#C/C(=N\Nc1ccc(Cl)cc1)C(=O)c1ccccc1
inactive

Which result was noted for this compound in the test: O/N=C/c1ccccc1Oc1ccc(Cl)cc1
active

Which result was noted for this compound in the test: COc1cc(NC(=S)NCc2cccnc2)c(OC)cc1Cl
inactive

Which result was noted for this compound in the test: CCOC(=O)NNC1CC(=O)N(c2ccccc2)C1=O (stereo unspecified)
inactive

Which result was noted for this compound in the test: c1ccc(-c2nc3cnccn3c2Nc2ccc3c(c2)OCCO3)cc1
inactive

Which result was noted for this compound in the test: COc1cccc(CC(=O)N2CCC(CCC(=O)Nc3cccc(OC)c3)CC2)c1
inactive

Which result was noted for this compound in the test: Cc1ccc2nnnc(-c3ccccc3)c2c1
inactive

Which result was noted for this compound in the test: N#C/C(=N\Nc1ccc(Cl)cc1)C(=O)c1ccsc1
active

Which result was noted for this compound in the test: O=C(O)CSc1nnc(CSc2nc3ccccc3s2)n1-c1ccccc1
inactive

Which result was noted for this compound in the test: CC(C)N(Cc1ccccc1)C(=S)Nc1ccccc1F
inactive

Which result was noted for this compound in the test: CCN(CC)S(=O)(=O)c1ccc(-c2ccc(S(=O)(=O)N(CC)CC)cc2)cc1
inactive

Which result was noted for this compound in the test: CCN1CCCC1CNC(=O)C(=O)NC1CC1 (stereo unspecified)
active

Which result was noted for this compound in the test: N#Cc1cc([N+](=O)[O-])ccc1NCC1CCCO1 (stereo unspecified)
inactive

Which result was noted for this compound in the test: Clc1ccc2nnnc(-c3ccccc3)c2c1
active

Which result was noted for this compound in the test: CCOC(=O)c1c(/N=C/c2cc([N+](=O)[O-])ccc2O)sc(C)c1C
inactive

Which result was noted for this compound in the test: CC1CCc2c(sc3ncn(CC(=O)N=Nc4c(O)[nH]c5ccccc45)c(=O)c23)C1 (stereo unspecified)
inactive

Which result was noted for this compound in the test: COc1ccccc1Nc1nc(N)nc(CN2CCCCC2)n1
inactive

Which result was noted for this compound in the test: CN(Cc1ccccc1)S(=O)(=O)c1nnc(NC(=O)c2ccccc2)s1
inactive

Which result was noted for this compound in the test: CCOc1ccc(OCC)c(S(=O)(=O)n2cc(C)nc2CC)c1
inactive

Which result was noted for this compound in the test: CCOC(=O)Cc1csc(NC(=O)CSc2nc(-c3ccccc3)c(C#N)c(=O)[nH]2)n1
inactive

###

Assay: NOD1 signaling inhibitors, primary screen, cell-based, luminescence, uHTS (AID 1578);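 also: HEK-293T reporter cells stimulated with the NOD1 agonist gamma-tri-DAP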
Settings: NOD1-driven NF-kB luciferase reporter cells, at 4 µM
About 3,000 (1%) of roughly 290,000 compounds were called active. Cut-off read from the data, not from the text of the source: active = inhibition mostly above about 36% (no sharp cut-off); inactive = mostly below about 34%. The sample holds actives, similar compounds and a random draw of the others, so the mix is not that of the screen.
Give your call using only these classes: 1 (yes) = active, 0 (no) = inactive

Which result was noted for this molecule in the test: Cc1ccc(-c2c[n+]3c(n2-c2ccccc2)CCC3)cc1
0 (no)

Which result was noted for this molecule in the test: Cc1ccccc1C(=O)c1c[nH]c(C(=O)NCc2cccs2)c1
0 (no)

Which result was noted for this molecule in the test: CCOC(=O)c1cnc2ccc(OC)cc2c1NCc1ccccc1
0 (no)

Which result was noted for this molecule in the test: COc1ccc(C(=O)Oc2ccc(N(C)S(=O)(=O)c3ccccc3)cc2)cc1[N+](=O)[O-]
0 (no)

Which result was noted for this molecule in the test: COc1ccc(-n2c(-c3ccc(Br)cc3)c[n+]3c2CCc2ccccc2-3)cc1
0 (no)

Which result was noted for this molecule in the test: CCOC(=O)c1cnc2ccc(OCC)cc2c1NCc1ccccc1OC
1 (yes)

Which result was noted for this molecule in the test: O=C(CSc1nnc(Cn2c(=O)sc3ccccc32)n1CCc1ccccc1)N1CCOCC1
0 (no)

Which result was noted for this molecule in the test: Cc1ccc(-n2c(-c3ccccc3)c[n+]3c2CCC3)cc1
0 (no)

Which result was noted for this molecule in the test: Cc1ccc(-n2c(-c3ccccc3)c[n+]3c2CCc2ccccc2-3)c(C)c1
1 (yes)

Which result was noted for this molecule in the test: CC(Cl)C(=O)Nc1ncc(C(F)(F)F)cc1Cl (stereo unspecified)
0 (no)

Which result was noted for this molecule in the test: COc1ccc(-n2c(-c3ccc(Cl)cc3)c[n+]3c2CCc2ccccc2-3)cc1
0 (no)
